- Test system: RPMI-8226 leukemia
- TEST SUMMARY: NCI tumour cell line growth inhibition, 48 h
PROPERTY NAME: TGI

// solved cases for TGI follow
>  <MOLECULE>
NC(CSCc1ccc(I)cc1)C(=O)O (stereo unspecified)

>  <TGI>
> 100 µM

$$$$
>  <MOLECULE>
COC(=O)[C@H](Cc1ccccc1)NC(=O)/C(=C/C(C)C)NC(=O)[C@H](CCSC)NC=O

>  <TGI>
> 100 µM

$$$$

Kindly give each listed record's TGI.
1. COc1c(O)c(OC)c2oc(-c3ccc(O)c(O)c3)c(OC)c(=O)c2c1O
2. CN(C)CCCC1c2ccccc2Oc2ccc(C(F)(F)F)cc21 (stereo unspecified)
3. O=C(NC(=S)Nc1ccc2c(c1)Sc1ccccc1O2)c1ccc([N+](=O)[O-])cc1
4. C[Si](C)(C)C#Cc1cc(-c2nc3ccccc3s2)ccc1N
5. Cc1c2ccnc(C(=O)NCCN(C)C)c2cc2c3cc(O)ccc3n(C)c12
6. CCOP(=O)(OCC)C(C)(C)N(C)/C(F)=N/C(F)(F)F

a:
1: > 100 µM; 2: 25.3 µM; 3: > 100 µM; 4: 48.3 µM; 5: 1.14 µM; 6: > 100 µM

====

- Test system: UACC-62 melanoma
- TEST SUMMARY: NCI tumour cell line growth inhibition, 48 h
What TGI was measured for each of the following?
Numbers only, in µM.

>  <COMPOUND>
CCN(CC)CCNc1ccc(C)c2sc3cc(Cl)ccc3c(=O)c12

>  <TGI (µM)>
3.54

$$$$
>  <COMPOUND>
C1=NCCN2CCN(CCN=Cc3ccccc3OCc3cccc(n3)COc3ccccc31)CC2

>  <TGI (µM)>
7.8

$$$$
>  <COMPOUND>
CN(C)CCNc1nc2ccccc2c2c1CCCC2

>  <TGI (µM)>
31.1

$$$$

Report TGI for each item below.
1. CCN(CC)Cc1cc(Nc2c3ccccc3nc3c2[nH]c2ccccc23)cc(CN(CC)CC)c1O
2. C=C1CCCC2[C@](C)(CC3=C(Cl)C(=O)C=C(OC)C3=O)C(C)CC[C@]12C (stereo partly specified)
3. CN(C)c1ccc(/C=C/c2ccnc3c(O)cccc23)cc1
4. Cc1cc([N+](=O)[O-])ccc1NC(=O)C(=O)C(C(=O)c1ccccc1-c1ccccc1)C1OC(=O)c2ccccc21 (stereo unspecified)
5. O=[N+]([O-])c1ccc2nc(Cl)n[n+]([O-])c2c1
6. N.N.NCCCCCN.O=C([O-])CCl.O=C([O-])CCl.O=C([O-])CCl.O=C([O-])CCl.[Pt+4].[Pt+4]
7. CC[C@H]1CN2CCc3cc(OC)c(OC)cc3C2C[C@@H]1CC1NCCc2cc(OC)c(OC)cc21 (stereo partly specified)

a:
1: 3.02; 2: 12.7; 3: 1.07; 4: 13.5; 5: 27.9; 6: 53.9; 7: 0.316

====

- Tested on: HCC-2998 colon
- TEST SUMMARY: NCI tumour cell line growth inhibition, 48 h; in the data active = GI50 below about 0.43 µM; inactive = the rest
Just give me one of these, please: active, inactive

Would you please look over these solved cases?
>  <COMPOUND>
O=C1c2[nH]cc(CNC3CN4CCC3CC4)c2C(=O)c2c1c(O)c1ccccc1c2O (configuration not stated)

>  <CLASS>
active

$$$$
>  <COMPOUND>
O=C(COc1ccc(/C=C2\COc3ccccc3C2=O)cc1)Nc1nccs1

>  <CLASS>
inactive

$$$$

q: Which outcome did this test record for the compound CC1(C)N=C(N)N=C(N)N1c1ccc(CCCCc2ccccc2)c(Cl)c1 ?
a: active

q: What was the test verdict on CCN(CC)CCNc1ccc(C)c2sc3cc(Cl)ccc3c(=O)c12 ?
a: inactive

q: What did the test return for CN(C)c1ccc(/C=C/c2ccnc3c(O)cccc23)cc1 ?
a: inactive

q: Call for entry CC(C)(C)N1CCC1CN (configuration not stated) :
a: inactive

q: Test call for this compound, please: CCOC(=O)C1=C(C)N=c2s/c(=C\c3ccccc3O)c(=O)n2C1c1ccc(OC)c2ccccc12 (configuration not stated)
a: inactive

q: Which outcome was entered for the compound C[n+]1c(/C=C/c2c[nH]c3ccccc23)ccc2ccccc21 in this test?
a: inactive

q: Dear all, I need the recorded test outcome for Cc1cc(Nc2ccc(OCc3ccccc3)cc2)nc2cc(O)ccc12 , thank you.
a: inactive

q: Look up the recorded call for CC[C@H](NC(=O)[C@H]1CCCCN1C)C(=O)N(C)[C@H](C[C@@H](OC(C)=O)c1nc(C(=O)N[C@@H](Cc2ccccc2)C[C@H](C)C(=O)O)cs1)C(C)C in this test.
a: active

q: What is the recorded call for this compound in the test? C=CCC(N[C@@H](CO)c1ccccc1)c1cn(Cc2ccccc2Cl)c(=O)n(Cc2ccccc2Cl)c1=O (some centres not stated)
a: inactive

q: Look up the recorded call for Cc1ccc(NC(=O)c2ccc(CN3CCN(C)CC3)cc2)cc1Nc1nccc(-c2cccnc2)n1 in this test.
a: inactive

q: Hi, do you know how CC[C@@H]1[C@@H](C)O[C@@](O)([C@@H](C)[C@H](O)[C@H](C)[C@H]2OC(=O)/C=C/C=C/[C@H](C)[C@@H]([C@@H](C)[C@@H](O)[C@H](C)[C@@]3(O)C[C@@H](O[C@H]4C[C@@H](O)[C@H](O)C(C)O4)[C@H](CC)[C@@H](C)O3)OC(=O)/C=C/C=C/[C@@H]2C)C[C@H]1O[C@@H]1C[C@@H](O)[C@H](O)C(C)O1 (some centres not stated) came out in this test?
a: active

q: Give the logged outcome of this assay for the following compound: CCCCCCCC/C=C/CCCCCCCC1=NC(C)(C)CN1CC(C)O (configuration not stated)
a: inactive

q: Short answer needed: outcome of this test for Cc1cc(=O)[nH]c(N/N=C/c2cc(Br)ccc2O)n1 ?
a: inactive

q: # outcome recorded in this test, key = COc1cc(/C=C2\C[C@H]3[C@@H]4CC=C5C[C@@H](O)CC[C@]5(C)[C@H]4CC[C@]3(C)[C@H]2O)ccc1OCCN1CCCC1
a: inactive

q: # lookup: test call for CCOC(=O)c1ccc(Nc2sc(C(=O)c3ccc(Br)cc3)c(N)c2C#N)cc1
a: inactive
